- ASSAY DETAILS: Hepatocyte stability assay (mouse)
- Type: in vitro ADME
- ASSAY CONTEXT: cryopreserved hepatocytes, 10 μM compound, 0.5×10^6 cells/mL, 60 minutes, read-out: T½
Threshold 20 min: half-life at 10 μM strictly smaller gives T, otherwise F.

[in] Hello, is half-life at 10 μM of the following compound strictly smaller than 20 min? `C=C(CC(=O)OC1CCCCC1)C(=O)OCC(=O)O`
[out] F

[in] Hello, is half-life at 10 μM of the following compound strictly smaller than 20 min? `C=C(CC(=O)OC(C)(C)CCCCC)C(=O)OCC(=O)O`
[out] F

[in] Hello, is half-life at 10 μM of the following compound strictly smaller than 20 min? `C=C(CC(=O)OC1CCCCC1)C(=O)OCCC(=O)O`
[out] F

[in] Hello, is half-life at 10 μM of the following compound strictly smaller than 20 min? `C=C(CC(=O)OC1CCCCCCC1)C(=O)OCCC(=O)O`
[out] F

[in] Hello, is half-life at 10 μM of the following compound strictly smaller than 20 min? `C=C(CC(=O)O[C@@H](CCCCCC)C(F)(F)F)C(=O)OCC(=O)O`
[out] T

###

- ASSAY DETAILS: Hepatocyte stability assay (mouse)
- Type: in vitro ADME
- ASSAY CONTEXT: cryopreserved hepatocytes, 10 μM compound, 0.5×10^6 cells/mL, 60 minutes, read-out: T½
Threshold 10 min: half-life at 10 μM strictly smaller gives 1, otherwise -1.

[in] Hello, is half-life at 10 μM of the following molecule strictly smaller than 10 min? `C=C(CC(=O)OC1C(C)(C)CC1(C)C)C(=O)OCC(=O)O`
[out] -1

[in] Hello, is half-life at 10 μM of the following molecule strictly smaller than 10 min? `C=C(CC(=O)O[C@@H](C)CCCCCC)C(=O)OCc1nn[nH]n1`
[out] 1

[in] Hello, is half-life at 10 μM of the following molecule strictly smaller than 10 min? `C=C(CC(=O)O[C@@H](CC)CCCCC)C(=O)OCC(=O)O`
[out] -1

[in] Hello, is half-life at 10 μM of the following molecule strictly smaller than 10 min? `C=C(CC(=O)O[C@H]1C[C@H]2CC[C@]1(C)C2(C)C)C(=O)OCC(=O)O`
[out] -1

[in] Hello, is half-life at 10 μM of the following molecule strictly smaller than 10 min? `C=C(CC(=O)OC1CCCCCCC1)C(=O)OCc1nnn[nH]1`
[out] 1

[in] Hello, is half-life at 10 μM of the following molecule strictly smaller than 10 min? `C=C(CC(=O)O[C@H](C)CCCCCC)C(=O)OCC(=O)O`
[out] -1

[in] Hello, is half-life at 10 μM of the following molecule strictly smaller than 10 min? `C=C(CC(=O)O[C@@H](C)CCCCCC)C(=O)OCCC(=O)O`
[out] 1

[in] Hello, is half-life at 10 μM of the following molecule strictly smaller than 10 min? `C=C(CC(=O)OC1CCCCCCC1)C(=O)OCC(=O)O`
[out] -1

[in] Hello, is half-life at 10 μM of the following molecule strictly smaller than 10 min? `C=C(CC(=O)OCCCCCC)C(=O)OCC(=O)O`
[out] -1

###

I'd be grateful if you could share measured concentration at 0.5 h for these entries.
- ASSAY DETAILS: Mouse pharmacokinetic study, intravenous dosing
- Assay type: in vivo
- ASSAY CONTEXT: male, C57BL/6, mouse, iv; plasma, 10 mg/kg i.v., time 0.5 h; read-out: Parent compound concentration following intravenous administration
A number alone suffices; assume ng/mL.

[in] What does the record list as concentration at 0.5 h for `C=C(CC(=O)O[C@@H](C)CCCCCC)C(=O)OCc1nn[nH]n1` ?
[out] 211

[in] What does the record list as concentration at 0.5 h for `C=C(CC(=O)O[C@H](C)CCCCCC)C(=O)OCc1nn[nH]n1` ?
[out] 343

[in] What does the record list as concentration at 0.5 h for `C=C(CC(=O)OC1CC2(CCC2)C1)C(=O)OCC(=O)O` ?
[out] 169

[in] What does the record list as concentration at 0.5 h for `C=C(CC(=O)OC1CCCCCCC1)C(=O)OCCC(=O)O` ?
[out] 752

[in] What does the record list as concentration at 0.5 h for `C=C(CC(=O)O[C@@H](C)CCCCCC)C(=O)OCCC(=O)O` ?
[out] 217

[in] What does the record list as concentration at 0.5 h for `C=C(CC(=O)O[C@H](CC)CCCCC)C(=O)OCC(=O)O` ?
[out] 2850
